Below: a set of entries, each annotated with reported growth percentage.
Test system: HT29
Test: cells
Assay type: cell-based
Settings: HT29 (Colon Cancer), 10 μM, 48 hours
quantity name: growth percentage

[[record]]
chemical_smiles = "O=C1c2cc(Cl)ccc2-c2c(N3CCN(c4ccccc4)CC3)nc3ccccc3c21"
target_desc = "HT29"
quantity_name = "growth percentage"
val = "82.40%"

[[record]]
chemical_smiles = "CC1CCN(c2nc3ccccc3c3c2-c2ccc(Cl)cc2C3=O)CC1"
target_desc = "HT29"
quantity_name = "growth percentage"
val = "104.84%"

[[record]]
chemical_smiles = "COc1nc2ccccc2c2c1-c1ccc(Cl)cc1C2=O"
target_desc = "HT29"
quantity_name = "growth percentage"
val = "111.60%"

[[record]]
chemical_smiles = "O=C1c2cc(Cl)ccc2-c2c(Cl)nc3ccccc3c21"
target_desc = "HT29"
quantity_name = "growth percentage"
val = "104.27%"

[[record]]
chemical_smiles = "O=C1c2cc(Cl)ccc2-c2c(O)nc3ccccc3c21"
target_desc = "HT29"
quantity_name = "growth percentage"
val = "102.38%"

[[record]]
chemical_smiles = "CN(C)c1nc2ccccc2c2c1-c1ccc(Cl)cc1C2=O"
target_desc = "HT29"
quantity_name = "growth percentage"
val = "94.89%"

